- targetSystem: Fibroblast growth factor 22 (Homo sapiens)
- testSummary: FGF22 melting temperature shift by ligands – biophysical, thermal shift, cherry-pick retest, FGF22 synaptogenesis inhibitor project, dose response (AID 720646)
- reportedConditions: recombinant FGF22 thermal shift, SYPRO orange fluorescence
Active and inactive are the calls of the source.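 Rule for the calls: active = fitted rise in melting shift crosses a set limit at or below the top valid dose tested; inconclusive = flat fit at mid-level activity, or a poor quality fit; inactive = the rest.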
In this exercise, the only acceptable responses are active, inactive

# fetch the recorded call for `Cc1ccc(NC(=O)c2ccc(OCc3c(C)noc3C)cc2)c(C)c1` here
active

# fetch the recorded call for `CSc1ccc(/C=N/NC(=O)c2ccc3nc[nH]c3c2)cc1` here
active

# fetch the recorded call for `C[C@@H]1CN([C@@H](C)CO)S(=O)(=O)c2ccc(-c3cccc(C#N)c3)cc2O[C@@H]1CN(C)C(=O)Nc1cc(F)ccc1F` here
inactive
